Would you kindly list IC50 for each of these molecules?
- System: HCT-116
- Assay summary: Cytotoxicity against human HCT116 cells assessed as cell viability after 72 hrs by MTT assay
- Assay type: functional, cell-based
- Applied conditions: HCT-116, 72 h

Reported IC50 of `O=C1C=C(n2cc(CNC3=C(Cl)C(=O)c4ccccc4C3=O)nn2)C(=O)c2ccccc21` : 6.65 µM

Reported IC50 of CC(=O)OC[C@H]1OC(n2cc(CNC3=CC(=O)c4ccccc4C3=O)nn2)[C@H](OC(C)=O)[C@@H](OC(C)=O)[C@@H]1OC(C)=O (single isomer, unassigned) : > 8 µM

Reported IC50 of CC1(C)CC(Nc2ccc(Cl)cc2)C2=C(O1)C(=O)c1ccccc1C2=O (centres undefined) : 0.54 µM

Reported IC50 of `O=C1C(Br)=C(NCc2cn(-c3cccc([N+](=O)[O-])c3)nn2)C(=O)c2ccccc21` : > 11 µM

Reported IC50 of CCCCCc1cn(C2CC(C)(C)OC3=C2C(=O)c2ccccc2C3=O)nn1 (centres undefined) : 4.93 µM

Reported IC50 of CC1(C)OC2=C(C(=O)c3ccccc3C2=O)C1n1cc(-c2ccccc2)nn1 (centres undefined) : 8.27 µM

Reported IC50 of `O=C1C(Br)=C(NCc2cn(CN3C(=O)c4ccccc4C3=O)nn2)C(=O)c2ccccc21` : > 10 µM

Reported IC50 of `O=C1C=C(NCc2cn(CCN3C(=O)c4ccccc4C3=O)nn2)C(=O)c2ccccc21` : > 11 µM

Reported IC50 of CCC(C)(O)c1cn(C2CC(C)(C)OC3=C2C(=O)c2ccccc2C3=O)nn1 (centres undefined) : 3.2 µM

----------
Would you kindly list pIC50 for each of these molecules?
- Tested on: HCT-116
- Assay summary: Cytotoxicity against human HCT116 cells assessed as cell viability after 72 hrs by MTT assay
- Assay type: functional, cell-based
- Applied conditions: HCT-116, 72 h
The quantity pIC50 is defined as the negative base-10 logarithm of the molar concentration.

Reported pIC50 of COc1ccc(NC2CC(C)(C)OC3=C2C(=O)c2ccccc2C3=O)cc1 (stereo not given) : 6.48

Reported pIC50 of CC1(C)CC(n2cc(C3CCCCC3)nn2)C2=C(O1)C(=O)c1ccccc1C2=O (stereo not given) : 4.98

----------
- System: MDA-MB-435
- Assay summary: Cytotoxicity against human MDA-MB-435 cells assessed as cell viability after 72 hrs by MTT assay
- Type: functional, cell-based
- Applied conditions: MDA-MB-435, 72 h
Quantity name: pIC50
The quantity pIC50 is defined as the negative base-10 logarithm of the molar concentration.

Reported pIC50 of CCC(C)(O)c1cn(C2CC(C)(C)OC3=C2C(=O)c2ccccc2C3=O)nn1 (stereo unspecified) : 5.68

Reported pIC50 of CC1(C)CC(Nc2ccc(I)cc2)C2=C(O1)C(=O)c1ccccc1C2=O (stereo unspecified) : 5.05

Reported pIC50 of `O=C1C=C(NCc2cn(C3=CC(=O)c4ccccc4C3=O)nn2)C(=O)c2ccccc21` : 5.51

Reported pIC50 of CC1(C)OC2=C(C(=O)c3ccccc3C2=O)C1n1cc(-c2ccccc2)nn1 (stereo unspecified) : 5.31

Reported pIC50 of CC1(C)CC(Nc2ccc(Cl)cc2)C2=C(O1)C(=O)c1ccccc1C2=O (stereo unspecified) : 6.00

Reported pIC50 of CC1(C)OC2=C(C(=O)c3ccccc3C2=O)C1n1cc(C2CCCCC2)nn1 (stereo unspecified) : 5.56

Reported pIC50 of CCCCCc1cn(C2CC(C)(C)OC3=C2C(=O)c2ccccc2C3=O)nn1 (stereo unspecified) : 5.56

Reported pIC50 of CC1(C)CC(n2cc(C3CCCCC3)nn2)C2=C(O1)C(=O)c1ccccc1C2=O (stereo unspecified) : 4.97

Reported pIC50 of CC(=O)OC[C@H]1OC(n2cc(CNC3=C(Br)C(=O)c4ccccc4C3=O)nn2)[C@H](OC(C)=O)[C@@H](OC(C)=O)[C@@H]1OC(C)=O (stereo partly specified) : 5.57

Reported pIC50 of CC1(C)CC(Nc2ccc([N+](=O)[O-])cc2)C2=C(O1)C(=O)c1ccccc1C2=O (stereo unspecified) : 5.27

Reported pIC50 of `O=C1C=C(n2cc(CNC3=C(Cl)C(=O)c4ccccc4C3=O)nn2)C(=O)c2ccccc21` : 5.48

Reported pIC50 of COc1ccc(NC2CC(C)(C)OC3=C2C(=O)c2ccccc2C3=O)cc1 (stereo unspecified) : 6.24

Reported pIC50 of CC1(C)CC(Nc2ccc(Br)cc2)C2=C(O1)C(=O)c1ccccc1C2=O (stereo unspecified) : 5.28

Reported pIC50 of CCCCCCc1cn(C2C3=C(OC2(C)C)C(=O)c2ccccc2C3=O)nn1 (stereo unspecified) : 5.40

Reported pIC50 of CC1(C)CC(Nc2cccc([N+](=O)[O-])c2)C2=C(O1)C(=O)c1ccccc1C2=O (stereo unspecified) : 5.84

Reported pIC50 of CC1(C)CC(Nc2cccc(Br)c2)C2=C(O1)C(=O)c1ccccc1C2=O (stereo unspecified) : 5.02

----------
- System: SF-295
- Assay summary: Cytotoxicity against human SF295 cells assessed as cell viability after 72 hrs by MTT assay
- Assay type: functional, cell-based
- Applied conditions: SF-295, 72 h
Quantity name: pIC50
The quantity pIC50 is defined as the negative base-10 logarithm of the molar concentration.

Reported pIC50 of CC1(C)CC(Nc2cccc(Br)c2)C2=C(O1)C(=O)c1ccccc1C2=O (stereo not drawn) : 5.06

Reported pIC50 of `O=C1C=C(n2cc(CNC3=C(Cl)C(=O)c4ccccc4C3=O)nn2)C(=O)c2ccccc21` : 5.26

Reported pIC50 of CC1(C)CC(Nc2ccc(Br)cc2)C2=C(O1)C(=O)c1ccccc1C2=O (stereo not drawn) : 5.20

Reported pIC50 of CCCCCCc1cn(C2C3=C(OC2(C)C)C(=O)c2ccccc2C3=O)nn1 (stereo not drawn) : 4.95

Reported pIC50 of CC1(C)CC(Nc2ccc(Cl)cc2)C2=C(O1)C(=O)c1ccccc1C2=O (stereo not drawn) : 6.15

Reported pIC50 of `O=C1C=C(NCc2cn(C3=CC(=O)c4ccccc4C3=O)nn2)C(=O)c2ccccc21` : 5.42

Reported pIC50 of CC(=O)OC[C@H]1OC(n2cc(CNC3=C(Br)C(=O)c4ccccc4C3=O)nn2)[C@H](OC(C)=O)[C@@H](OC(C)=O)[C@@H]1OC(C)=O (stereo partly drawn) : 5.55

Reported pIC50 of CC1(C)CC(Nc2cccc([N+](=O)[O-])c2)C2=C(O1)C(=O)c1ccccc1C2=O (stereo not drawn) : 5.82

Reported pIC50 of COc1ccc(NC2CC(C)(C)OC3=C2C(=O)c2ccccc2C3=O)cc1 (stereo not drawn) : 6.13

----------
- Assay summary: Cytotoxicity against human HCT8 cells assessed as cell viability after 72 hrs by MTT assay
- Format: functional, cell-based
- Applied conditions: HCT-8, 72 h
Would you kindly list pIC50 for each of these compounds?
The quantity pIC50 is defined as the negative base-10 logarithm of the molar concentration.

Reported pIC50 of CC(=O)OC[C@H]1OC(n2cc(CNC3=C(Br)C(=O)c4ccccc4C3=O)nn2)[C@H](OC(C)=O)[C@@H](OC(C)=O)[C@@H]1OC(C)=O (stereo partly drawn) : 5.66

Reported pIC50 of CCCCCc1cn(C2CC(C)(C)OC3=C2C(=O)c2ccccc2C3=O)nn1 (stereo not drawn) : 5.35

Reported pIC50 of COc1ccc(NC2CC(C)(C)OC3=C2C(=O)c2ccccc2C3=O)cc1 (stereo not drawn) : 6.33

Reported pIC50 of `O=C1C=C(n2cc(CNC3=C(Cl)C(=O)c4ccccc4C3=O)nn2)C(=O)c2ccccc21` : 5.15

Reported pIC50 of `COc1cccc2c1C(=O)c1c(O)c3c(c(O)c1C2=O)C[C@@](O)(C(=O)CO)C[C@@H]3O[C@H]1C[C@H](N)[C@H](O)[C@H](C)O1` : 6.89

----------
- Tested on: HCT-116
- Assay summary: Cytotoxicity against human HCT116 cells assessed as cell viability after 72 hrs by MTT assay
- Format: functional, cell-based
- Applied conditions: HCT-116, 72 h
Would you kindly list IC50 for each of these molecules?
Entry rule: numbers only, all in µM.

Summary: CC1(C)CC(Nc2ccc(Br)cc2)C2=C(O1)C(=O)c1ccccc1C2=O (centres undefined) , HCT-116, IC50 = 5.84

Summary: CC1(C)OC2=C(C(=O)c3ccccc3C2=O)C1Sc1ccccc1 (centres undefined) , HCT-116, IC50 = 3.29

Summary: CC(=O)OC[C@H]1OC(n2cc(CNC3=C(Br)C(=O)c4ccccc4C3=O)nn2)[C@H](OC(C)=O)[C@@H](OC(C)=O)[C@@H]1OC(C)=O (some centres undefined) , HCT-116, IC50 = 4.39

Summary: CC1(C)OC2=C(C(=O)c3ccccc3C2=O)C1n1cc(C2CCCCC2)nn1 (centres undefined) , HCT-116, IC50 = 5.51

Summary: CCCCCCc1cn(C2C3=C(OC2(C)C)C(=O)c2ccccc2C3=O)nn1 (centres undefined) , HCT-116, IC50 = 4.88

Cited source: ChEMBL document CHEMBL3112408
